Organism: Rattus norvegicus
Experiment: DrugMatrix - Regimen: Daily Repeat
Assay type: toxicity, organism-based, Sprague-Dawley
Design: regimen Daily Repeat, gender Male, age 6-8 weeks
Conditions: in vivo, po, 0 mg/kg, 72 h, tissue Plasma, route oral GAVAGE, dose level Control, time 3 day, […]
measured_metric: TOTAL PROTEIN (G/DL)
Entry rule: numbers only, all in G/DL.

Please report the recorded TOTAL PROTEIN for CCOC(=O)C1=C(C)NC(C)=C(C(=O)OCC)C1c1ccccc1/C=C/C(=O)OC(C)(C)C .
5.43

Try CCC(C)(C)C(=O)O[C@H]1C[C@@H](C)C=C2C=C[C@H](C)[C@H](CC[C@@H]3C[C@@H](O)CC(=O)O3)[C@H]21 next.
5.63

Try O=C(O)COC(=O)Cc1ccccc1Nc1c(Cl)cccc1Cl next.
5.77

Try COC(=O)Nc1nc2ccc(C(=O)c3ccccc3)cc2[nH]1 next.
5.77
